testProtocol: inhibitors of hydroxyurea-induced Chk1 phosphorylation, primary screen, imaging, HeLa, phospho-Chk1 nuclear intensity (AID 1187); further: test concentration not given here
particulars: hydroxyurea-induced phospho-Chk1 immunofluorescence imaging, higher = more signal
measurementType: z-score

>  <compound>
CCCCCCc1nc(C2CC2)c(C)c2c1[Si](C(C)C)(C(C)C)OC2

>  <measurementType>
z-score

>  <reportedMeasurement>
-0.23

$$$$
>  <compound>
[N-]=[N+]=Nc1ccccc1C[C@@]1(C(=O)N2CCOCC2)N=C(c2ccc(OCCCO)cc2)O[C@@H]1c1ccccc1N=[N+]=[N-]

>  <measurementType>
z-score

>  <reportedMeasurement>
-1.06

$$$$
>  <compound>
O=C1C2C=CC(C(O)Cc3ccccc3)N(Nc3ccc([N+](=O)[O-])cc3)C2C(=O)N1c1ccccc1 (stereo not given)

>  <measurementType>
z-score

>  <reportedMeasurement>
-0.541

$$$$
>  <compound>
CO[C@H]1O[C@H](CO)[C@@H](OC(=O)CCc2ccccc2)[C@@H]2OC(=O)[C@H](Cc3cccc(Br)c3)C/C=C/C[C@@H](Cc3cccc(Br)c3)C(=O)O[C@@H]12

>  <measurementType>
z-score

>  <reportedMeasurement>
-1.1

$$$$
>  <compound>
C[C@]1(C(=O)NCc2ccccc2)c2ccccc2C(=O)N(Cc2cc(C(F)(F)F)cc(C(F)(F)F)c2)[C@H]1c1ccc(CO)cc1

>  <measurementType>
z-score

>  <reportedMeasurement>
-2.06

$$$$
>  <compound>
C=C(CCCC)/C(=C/C[C@H](OC(=O)c1ccncc1)c1cccc(OCCO)c1)c1cc(C(=O)OC)ccc1OC

>  <measurementType>
z-score

>  <reportedMeasurement>
-0.355

$$$$
>  <compound>
CCOC(=O)C[C@H]1[C@H](OC(=O)c2ccccc2-c2ccccc2)[C@@H](NC(=O)C2CCCCC2)c2cc(OCCCO)ccc2N1C(=O)c1ccccc1

>  <measurementType>
z-score

>  <reportedMeasurement>
-0.0975

$$$$
>  <compound>
CCC#CCN(Cc1ccccc1Br)[C@H](/C=C/c1ccccc1)[C@@H](O)Cc1ccccc1

>  <measurementType>
z-score

>  <reportedMeasurement>
-0.241

$$$$
>  <compound>
C=C(CCCC)/C(=C/C[C@@H](OC(=O)c1ccncc1)c1cccc(OCCO)c1)c1cc(C(=O)OC)ccc1OC

>  <measurementType>
z-score

>  <reportedMeasurement>
0.74

$$$$
>  <compound>
C=CCC(OC(C)=O)[C@@H]1[C@@H](N(Cc2ccc(-c3ccccc3)cc2)C(=O)c2ccc(-c3ccccc3)cc2)c2cc(OCCCO)ccc2N1C(=O)Cc1ccc(OC)cc1 (stereo not given in full)

>  <measurementType>
z-score

>  <reportedMeasurement>
-0.47

$$$$
>  <compound>
COc1ccc(-c2cc3c(c(-c4ccccc4)n2)[Si](C(C)C)(C(C)C)O[C@H]3c2ccccc2)cn1

>  <measurementType>
z-score

>  <reportedMeasurement>
-0.344

$$$$
>  <compound>
CCOC(=O)C1=CCC(c2cccc3ccccc23)N(S(=O)(=O)c2ccc(C)cc2)C1 (stereo not given)

>  <measurementType>
z-score

>  <reportedMeasurement>
-0.129

$$$$
>  <compound>
O=C1OCC=C[C@H]2OC34C=CCN(Cc5ccccc5)C(=O)[C@H]3N(CCO)C(=O)[C@@H]4[C@@H]12 (stereo not given in full)

>  <measurementType>
z-score

>  <reportedMeasurement>
0.252

$$$$
>  <compound>
C[C@H]1C2[C@H](Cc3ccccc3)NC(=O)[C@]23C(=O)N[C@H](Cc2ccccc2)C(=O)N[C@@H](Cc2ccccc2)C(=O)NC/C=C\C/C=C/C3[C@@H]2O[C@]12C (stereo not given in full)

>  <measurementType>
z-score

>  <reportedMeasurement>
0.375

$$$$
>  <compound>
COC(=O)[C@@]1(Cc2ccc(OC)cc2)[C@H]2c3cc(C(=O)N(C)C)n(Cc4ccc(C)c(F)c4F)c3C[C@H]2CN1C(=O)c1ccccc1

>  <measurementType>
z-score

>  <reportedMeasurement>
0.0937

$$$$
